Cited source: patent US8685992B2

Test system: Hep3B
Assay: Cancer cell growth inhibition, Hep3B
Type: cell-based, human
Conditions: Homo sapiens, Liver Cancer, 72 h treatment
I'd be grateful if you could share measured pIC50 for these entries.
As a rule, pIC50 stands for the negative log10 of the concentration, concentration in M.

Form: compound = `O=C(NO)c1ccc(CNC(=O)c2[nH]c(-c3ccc(O)cc3)cc2-c2ccsc2)cc1` ; pIC50 = 5.57

Form: compound = `COc1ccc(-c2cc(-c3ccsc3)c(C(=O)NCc3ccc(C(=O)NO)cc3)[nH]2)cc1` ; pIC50 = 5.37

Form: compound = `COc1ccc(-c2cc(-c3ccoc3)c(C(=O)NCc3ccc(C(=O)NO)cc3)[nH]2)cc1` ; pIC50 = 6.21

Form: compound = `O=C(NO)c1ccc(CNC(=O)c2[nH]c(-c3ccc(O)cc3)cc2-c2ccoc2)cc1` ; pIC50 = 6.07

Form: compound = `O=C(NO)c1ccc(CNC(=O)c2[nH]c(-c3ccoc3)cc2-c2ccc(O)cc2)cc1` ; pIC50 = 5.50
